# Assay Target: α2β2γ1 GABAA receptor subtype (Homo sapiens (Human), UniProt P47869+Q8N1C3)
# Protocol Description: Two-electrode voltage clamp electrophysiology in Xenopus oocytes expressing GABAA receptors (modulation of GABA EC20 current)
# Assay type: cell-based
# Experimental Conditions: % modulation of GABA EC20 = 100*(Fold increase-1); α2β2γ1 oocytes; compound at approx. 30-fold Ki
Outcome Measure: Efficacy (GABA)% (%)

>>> print(df.to_string())
                                    compound                              assay_target   outcome_measure  units_symbol  experimental_result
 0  C[C@@H]1N=C(c2ncccc2F)c2c(ccc(C(F)(F)F)c2Cl)-n2c(CO)cnc21 [Example 151]  α2β2γ1 GABAA receptor subtype (Homo sapiens (Human), UniProt P47869+Q8N1C3)  Efficacy (GABA)%             %                  253
 1  C[C@@H]1N=C(c2c(F)cccc2F)c2c(ccc(C(F)(F)F)c2Cl)-n2ncnc21 [Example 22]  α2β2γ1 GABAA receptor subtype (Homo sapiens (Human), UniProt P47869+Q8N1C3)  Efficacy (GABA)%             %                   78
 2  C[C@@H]1N=C(c2ncccc2F)c2c(ccc(C(F)(F)F)c2Cl)-n2nc(C(=O)NCCO)nc21 [Example 138]  α2β2γ1 GABAA receptor subtype (Homo sapiens (Human), UniProt P47869+Q8N1C3)  Efficacy (GABA)%             %                  204
 3  C[C@@H]1N=C(c2ncccc2F)c2c(ccc(Cl)c2Cl)-n2nc(C(=O)N3CC4(CCCO4)C3)nc21 [Example 97]  α2β2γ1 GABAA receptor subtype (Homo sapiens (Human), UniProt P47869+Q8N1C3)  Efficacy (GABA)%             %                   95
 4  C[C@@H]1N=C(c2ncccc2F)c2c(ccc(C(F)(F)F)c2Cl)-n2cc(C(=O)N[C@H]3C[C@H](O)C3)nc21 [Example 165]  α2β2γ1 GABAA receptor subtype (Homo sapiens (Human), UniProt P47869+Q8N1C3)  Efficacy (GABA)%             %                  183
 5  C[C@@H]1N=C(c2ncccc2F)c2c(ccc(C(F)(F)F)c2Cl)-n2nc(NC(=O)NC3COC3)nc21 [Example 146]  α2β2γ1 GABAA receptor subtype (Homo sapiens (Human), UniProt P47869+Q8N1C3)  Efficacy (GABA)%             %                  111
 6  CNC(=O)c1nc2n(n1)-c1ccc(Cl)c(Cl)c1C(c1c(F)cccc1F)=NC2 [Example 6]  α2β2γ1 GABAA receptor subtype (Homo sapiens (Human), UniProt P47869+Q8N1C3)  Efficacy (GABA)%             %                  101
 7  C[C@@H]1N=C(c2ncccc2F)c2c(ccc(Br)c2Cl)-n2nc(C(=O)N3CCC3)nc21 [Example 48]  α2β2γ1 GABAA receptor subtype (Homo sapiens (Human), UniProt P47869+Q8N1C3)  Efficacy (GABA)%             %                   94
 8  Cc1cnc2n1-c1ccc(C(F)(F)F)c(Cl)c1C(c1ncccc1F)=N[C@H]2C [Example 136]  α2β2γ1 GABAA receptor subtype (Homo sapiens (Human), UniProt P47869+Q8N1C3)  Efficacy (GABA)%             %                  116
 9  C[C@@H]1N=C(c2ncccc2F)c2c(ccc(Cl)c2Cl)-n2nc(C(=O)NC3CC3)nc21 [Example 88]  α2β2γ1 GABAA receptor subtype (Homo sapiens (Human), UniProt P47869+Q8N1C3)  Efficacy (GABA)%             %                  162
10  C[C@@H]1N=C(c2c(F)cccc2F)c2c(ccc(Cl)c2Cl)-n2nc(C(=O)N3CC(C(F)F)C3)nc21 [Example 75]  α2β2γ1 GABAA receptor subtype (Homo sapiens (Human), UniProt P47869+Q8N1C3)  Efficacy (GABA)%             %                   41
11  C[C@@H]1N=C(c2ncccc2F)c2c(ccc(C(F)(F)F)c2Cl)-n2cc(C(=O)N3CC(F)C3)nc21 [Example 161]  α2β2γ1 GABAA receptor subtype (Homo sapiens (Human), UniProt P47869+Q8N1C3)  Efficacy (GABA)%             %                  165
12  C[C@@H]1N=C(c2c(F)cccc2F)c2c(ccc(Cl)c2Cl)-n2nc(C(=O)N3CC[C@@H](F)C3)nc21 [Example 76]  α2β2γ1 GABAA receptor subtype (Homo sapiens (Human), UniProt P47869+Q8N1C3)  Efficacy (GABA)%             %                   52
13  C[C@@H]1N=C(c2c(F)cccc2F)c2c(ccc(C(F)(F)F)c2Cl)-n2nc(C(=O)N3CC(O)C3)nc21 [Example 58]  α2β2γ1 GABAA receptor subtype (Homo sapiens (Human), UniProt P47869+Q8N1C3)  Efficacy (GABA)%             %                  112
14  C[C@@H]1N=C(c2c(F)cccc2F)c2c(ccc(C(F)(F)F)c2Cl)-n2nc(NC(=O)N3CCS(=O)(=O)CC3)nc21 [Example 131]  α2β2γ1 GABAA receptor subtype (Homo sapiens (Human), UniProt P47869+Q8N1C3)  Efficacy (GABA)%             %                  104

###

# Assay Target: α2β2γ1 GABAA receptor subtype (Homo sapiens (Human), UniProt P47869+Q8N1C3)
# Protocol Description: Two-electrode voltage clamp electrophysiology in Xenopus oocytes expressing GABAA receptors (modulation of GABA EC20 current)
# Type: cell-based
# Experimental Conditions: Xenopus oocytes expressing α2β2γ1; compound at approx. 30-fold its Ki α2β2γ1; GABA EC20 current
# Description: Xenopus laevis oocytes at maturation stages V-VI were used for the expression of cloned mRNA encoding GABAA receptor subunits. Oocytes ready for RNA micro-injection were bought from Ecocyte, Castrop-Rauxel, Germany and stored in modified Barth's medium (composition in mM: NaCl 88, KCl 1, NaHCO3 2.4, HEPES 10, MgSO4 0.82, CaNO3 0.33, CaCl2 0.33, pH=7.5) at 20° C. until the experiment. […]
Could you mark each record t if its Fold increase h-GABA-A α2β2γ1 oocyte @ 30-fold Ki falls strictly under 2, and f if it equals or exceeds it?

                                    compound  category
 0  C[C@@H]1N=C(c2ncccc2F)c2c(ccc(C(F)(F)F)c2Cl)-n2nc(NC(=O)NC3COC3)nc21 [Example 146]         f
 1  C[C@@H]1N=C(c2ncccc2F)c2c(ccc(C(F)(F)F)c2Cl)-n2cc(C(=O)N[C@H]3C[C@H](O)C3)nc21 [Example 165]         f
 2  C[C@@H]1N=C(c2c(F)cccc2F)c2c(ccc(Cl)c2Cl)-n2nc(C(=O)NCCO)nc21 [Example 54]         t
 3  C[C@@H]1N=C(c2ncccc2F)c2c(ccc(C(F)(F)F)c2Cl)-n2nc(C(=O)N3CC4(CCOC4)C3)nc21 [Example 120]         f
 4  C[C@@H]1N=C(c2c(F)cccc2F)c2c(ccc(Cl)c2Cl)-n2ncnc21 [Example 15]         t
 5  C[C@@H]1N=C(c2c(F)cccc2F)c2c(ccc(Cl)c2Cl)-n2nc(C(=O)NCCF)nc21 [Example 30]         t
 6  CO[C@@H]1CCN(C(=O)c2nc3n(n2)-c2ccc(Cl)c(Cl)c2C(c2c(F)cccc2F)=N[C@H]3C)C1 [Example 46]         t
 7  C[C@@H]1N=C(c2ncccc2F)c2c(ccc(Cl)c2Cl)-n2nc(C(=O)N3CC4(CCOC4)C3)nc21 [Example 100]         f
 8  C[C@@H]1N=C(c2ncccc2F)c2c(ccc(Cl)c2Cl)-n2nc(C(=O)N3CCC3)nc21 [Example 42]         f
 9  C[C@@H]1N=C(c2c(F)cccc2F)c2c(ccc(Cl)c2Cl)-n2nc(C(=O)NCC#N)nc21 [Example 56]         t
10  C[C@@H]1N=C(c2c(F)cccc2F)c2c(ccc(C(F)(F)F)c2Cl)-n2nc(NC(=O)NC3CC3)nc21 [Example 126]         t
11  Cc1cnc2n1-c1ccc(C(F)(F)F)c(Cl)c1C(c1ncccc1F)=N[C@H]2C [Example 136]         f
12  COC1CN(C(=O)Nc2nc3n(n2)-c2ccc(C(F)(F)F)c(Cl)c2C(c2c(F)cccc2F)=N[C@H]3C)C1 [Example 127]         f
